Record form. Attribute: free fatty acids. Fill in for each entry.
# Tested on: Normolipolysis
# Measurement protocol: Antilipolytic activity, normolipolysis (free fatty acids)
# Assay type: in vivo
# Conditions used: 4 hours after 1·10^-3 mol/kg oral single dose; normally fed
Answers are plain numbers, in µEq/1.

Some entries whose results are on file:
O=C(COC(=O)c1cccnc1)OCCSCCCCCCCCCCSCCOC(=O)COC(=O)c1cccnc1
170
O=C(CNC(=O)c1cccnc1)OCCSCCCCCCCCCCSCCOC(=O)CNC(=O)c1cccnc1
225
O=C(O)c1cccnc1
160

Read the next record carefully.
Name the recorded free fatty acids for `O=C(OCCSCCCCCCCCCCSCCOC(=O)c1cccnc1)c1cccnc1` .
155

---

# Tested on: Adrenalin induced lypolysis
# Measurement protocol: Antilipolytic activity, adrenalin induced lipolysis (free fatty acids)
# Format: in vivo
# Conditions used: 60'; 1·10^-3 mol/kg oral; adrenalin 1 mg/kg i.p. 60 min before killing
Record form. Attribute: FFA. Fill in for each entry.
Numbers only, in μEq/l.

O=C(CNC(=O)c1cccnc1)OCCSCCCCCCCCCCSCCOC(=O)CNC(=O)c1cccnc1
400
O=C(O)c1cccnc1
650
O=C(COC(=O)c1cccnc1)OCCSCCCCCCCCCCSCCOC(=O)COC(=O)c1cccnc1
610

Read the next record carefully.
Name the recorded FFA for `O=C(OCCSCCCCCCCCCCSCCOC(=O)c1cccnc1)c1cccnc1` .
625

---

# Tested on: Normolipolysis
# Measurement protocol: Antilipolytic activity, normolipolysis (free fatty acids)
# Assay type: in vivo
# Conditions used: Basal; normally fed 7 days; group later given 1·10^-3 mol/kg oral single dose
Record form. Attribute: free fatty acids. Fill in for each entry.
Numbers only, in µEq/1.

O=C(O)c1cccnc1
260
O=C(COC(=O)c1cccnc1)OCCSCCCCCCCCCCSCCOC(=O)COC(=O)c1cccnc1
240
O=C(OCCSCCCCCCCCCCSCCOC(=O)c1cccnc1)c1cccnc1
230

Read the next record carefully.
Name the recorded free fatty acids for `O=C(CNC(=O)c1cccnc1)OCCSCCCCCCCCCCSCCOC(=O)CNC(=O)c1cccnc1` .
230

---

# Tested on: Normolipolysis
# Measurement protocol: Antilipolytic activity, normolipolysis (free fatty acids)
# Assay type: in vivo
# Conditions used: 2 hours after 1·10^-3 mol/kg oral single dose; normally fed
Quantity: free fatty acids
Please make sure the unit comes right after the number.

Go through the items and report each one's free fatty acids.
1. O=C(O)c1cccnc1 [Compound 2, nicotinic acid]
2. O=C(COC(=O)c1cccnc1)OCCSCCCCCCCCCCSCCOC(=O)COC(=O)c1cccnc1 [Compound 5]
3. O=C(CNC(=O)c1cccnc1)OCCSCCCCCCCCCCSCCOC(=O)CNC(=O)c1cccnc1 [Compound 1]
4. O=C(OCCSCCCCCCCCCCSCCOC(=O)c1cccnc1)c1cccnc1 [Compound 4]

1. 110 µEq/1
2. 120 µEq/1
3. 200 µEq/1
4. 120 µEq/1

---

# Test system: Fasting induced lipolysis
# Measurement protocol: Antilipolytic activity, fasting induced lipolysis (free fatty acids)
# Assay type: in vivo
# Conditions used: 4 hours after 1·10^-3 mol/kg oral single dose; fasted for 24 hours
Quantity: free fatty acids (µEq/1)
Give bare numbers, in µEq/1.

Some entries whose results are on file:
O=C(CNC(=O)c1cccnc1)OCCSCCCCCCCCCCSCCOC(=O)CNC(=O)c1cccnc1 [Compound 1]
430
O=C(O)c1cccnc1 [Compound 2, nicotinic acid]
190
O=C(COC(=O)c1cccnc1)OCCSCCCCCCCCCCSCCOC(=O)COC(=O)c1cccnc1 [Compound 5]
228

Read the next record carefully.
Name the recorded free fatty acids for O=C(OCCSCCCCCCCCCCSCCOC(=O)c1cccnc1)c1cccnc1 [Compound 4] .
240
